target: E3 ubiquitin-protein ligase XIAP/Tyrosine-protein kinase ABL1/Breakpoint cluster region protein (Homo sapiens, UniProt P00519+P11274+P98170); experiment: Protac activity at XIAP/BCR-ABL in human K562 cells assessed as induction of BCR-ABL protein degradation measured after 6 hrs by Western blot analysis
Sequence (P00519 whole entry): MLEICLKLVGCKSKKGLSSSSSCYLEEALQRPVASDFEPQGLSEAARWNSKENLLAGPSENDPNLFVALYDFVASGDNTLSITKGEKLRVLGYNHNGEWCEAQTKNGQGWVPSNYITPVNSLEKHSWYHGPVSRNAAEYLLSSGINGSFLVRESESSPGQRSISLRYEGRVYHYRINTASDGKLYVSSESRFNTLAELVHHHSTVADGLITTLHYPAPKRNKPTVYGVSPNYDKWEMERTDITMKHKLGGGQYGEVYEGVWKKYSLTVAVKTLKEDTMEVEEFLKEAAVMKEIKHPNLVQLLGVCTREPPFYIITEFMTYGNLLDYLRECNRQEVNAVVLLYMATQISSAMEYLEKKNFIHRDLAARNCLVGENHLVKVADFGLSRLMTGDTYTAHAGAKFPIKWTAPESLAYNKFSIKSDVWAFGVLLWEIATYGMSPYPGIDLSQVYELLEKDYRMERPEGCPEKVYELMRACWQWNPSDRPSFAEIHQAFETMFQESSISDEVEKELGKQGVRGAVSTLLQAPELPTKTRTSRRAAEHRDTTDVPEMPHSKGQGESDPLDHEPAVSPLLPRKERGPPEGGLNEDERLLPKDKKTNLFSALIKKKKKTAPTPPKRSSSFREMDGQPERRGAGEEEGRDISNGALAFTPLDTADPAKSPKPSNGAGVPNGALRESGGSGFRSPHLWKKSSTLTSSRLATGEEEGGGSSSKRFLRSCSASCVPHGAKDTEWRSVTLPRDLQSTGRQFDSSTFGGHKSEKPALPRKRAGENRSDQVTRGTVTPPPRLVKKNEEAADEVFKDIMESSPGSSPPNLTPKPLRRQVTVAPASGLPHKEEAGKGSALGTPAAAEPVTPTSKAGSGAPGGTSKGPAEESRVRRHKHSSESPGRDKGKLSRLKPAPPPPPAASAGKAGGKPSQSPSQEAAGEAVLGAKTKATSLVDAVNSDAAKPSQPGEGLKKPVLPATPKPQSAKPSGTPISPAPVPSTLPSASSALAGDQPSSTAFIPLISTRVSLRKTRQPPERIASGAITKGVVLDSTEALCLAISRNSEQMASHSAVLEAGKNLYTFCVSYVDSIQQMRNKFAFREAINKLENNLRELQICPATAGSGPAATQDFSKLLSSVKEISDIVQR
Sequence (P98170 whole entry): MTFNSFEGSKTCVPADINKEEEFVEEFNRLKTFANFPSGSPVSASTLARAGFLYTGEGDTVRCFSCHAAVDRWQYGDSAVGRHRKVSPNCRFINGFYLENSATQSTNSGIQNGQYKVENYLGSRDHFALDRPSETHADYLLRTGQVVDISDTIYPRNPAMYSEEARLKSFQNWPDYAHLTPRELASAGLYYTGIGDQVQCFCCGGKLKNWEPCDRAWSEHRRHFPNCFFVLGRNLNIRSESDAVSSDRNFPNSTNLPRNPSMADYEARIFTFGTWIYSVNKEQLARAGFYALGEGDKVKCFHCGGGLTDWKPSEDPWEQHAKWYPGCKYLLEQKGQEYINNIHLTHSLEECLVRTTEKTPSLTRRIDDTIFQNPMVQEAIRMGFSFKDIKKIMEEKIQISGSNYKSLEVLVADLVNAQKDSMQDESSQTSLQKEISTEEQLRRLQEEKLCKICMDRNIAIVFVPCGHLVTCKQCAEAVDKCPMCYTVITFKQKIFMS
Sequence (P11274 whole entry): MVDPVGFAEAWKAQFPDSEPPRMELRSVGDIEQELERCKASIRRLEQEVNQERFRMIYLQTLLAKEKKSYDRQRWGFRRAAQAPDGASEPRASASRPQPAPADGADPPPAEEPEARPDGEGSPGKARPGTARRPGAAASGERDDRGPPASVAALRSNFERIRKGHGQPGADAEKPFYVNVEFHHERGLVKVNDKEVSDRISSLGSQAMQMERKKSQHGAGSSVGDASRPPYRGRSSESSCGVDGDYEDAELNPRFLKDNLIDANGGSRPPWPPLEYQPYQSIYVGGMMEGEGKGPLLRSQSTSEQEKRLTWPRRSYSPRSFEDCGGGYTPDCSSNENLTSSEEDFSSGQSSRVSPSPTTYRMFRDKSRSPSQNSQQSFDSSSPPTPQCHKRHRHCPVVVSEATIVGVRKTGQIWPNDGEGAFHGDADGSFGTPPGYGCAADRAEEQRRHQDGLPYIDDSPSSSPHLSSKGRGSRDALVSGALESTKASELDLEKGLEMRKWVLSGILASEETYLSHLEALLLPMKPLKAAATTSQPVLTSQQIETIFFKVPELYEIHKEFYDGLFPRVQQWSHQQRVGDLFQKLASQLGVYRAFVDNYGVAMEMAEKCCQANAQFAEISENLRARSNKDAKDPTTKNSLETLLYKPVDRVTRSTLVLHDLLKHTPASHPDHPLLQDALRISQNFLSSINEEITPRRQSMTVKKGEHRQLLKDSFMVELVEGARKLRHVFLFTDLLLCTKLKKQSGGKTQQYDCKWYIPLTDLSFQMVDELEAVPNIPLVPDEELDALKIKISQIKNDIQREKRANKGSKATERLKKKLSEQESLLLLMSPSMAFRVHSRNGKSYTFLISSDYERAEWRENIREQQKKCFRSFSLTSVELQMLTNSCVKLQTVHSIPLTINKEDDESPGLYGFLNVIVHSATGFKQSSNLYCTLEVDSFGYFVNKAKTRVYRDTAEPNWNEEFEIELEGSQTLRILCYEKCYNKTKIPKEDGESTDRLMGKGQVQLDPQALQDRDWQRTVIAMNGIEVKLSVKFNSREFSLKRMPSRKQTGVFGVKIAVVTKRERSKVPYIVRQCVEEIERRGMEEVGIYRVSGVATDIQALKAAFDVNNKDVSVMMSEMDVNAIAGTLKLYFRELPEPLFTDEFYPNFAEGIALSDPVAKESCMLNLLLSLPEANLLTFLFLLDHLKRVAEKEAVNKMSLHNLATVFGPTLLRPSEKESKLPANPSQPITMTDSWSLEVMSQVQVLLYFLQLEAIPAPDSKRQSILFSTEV
Quantity kind: EC50

Entry CN[C@@H](C)C(=O)N[C@H](C(=O)N1CCC[C@H]1c1nc(C(=O)c2cccc(OCCOCCOCCOCC(=O)N3CCN(c4cc(Nc5ncc(C(=O)Nc6c(C)cccc6Cl)s5)nc(C)n4)CC3)c2)cs1)C1CCCCC1 has what EC50?
< 100 nM

###

molecular target: Baculoviral IAP repeat-containing protein 2/Cellular retinoic acid-binding protein 2 (Homo sapiens, UniProt P29373+Q13490); test: Protac activity at cIAP1 (unknown origin)/CRABP-II (unknown origin) assessed as protein degradation
Sequence (P29373 whole entry, one chain of several): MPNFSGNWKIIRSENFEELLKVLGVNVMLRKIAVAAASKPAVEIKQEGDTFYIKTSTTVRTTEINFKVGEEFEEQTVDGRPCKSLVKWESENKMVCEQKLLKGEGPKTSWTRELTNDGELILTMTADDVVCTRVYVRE
Quantity kind: EC50

Entry CC1=C(/C=C/C(C)=C/C=C/C(C)=C/C(=O)O)C(C)(C)CC/C1=N\OCC(=O)NCCOCCOCCOC(=O)[C@H](CC(C)C)NC(=O)[C@@H](O)[C@H](N)Cc1ccccc1 has what EC50?
≥ 1000 nM

###

target: Baculoviral IAP repeat-containing protein 2/E3 ubiquitin-protein ligase XIAP/Breakpoint cluster region protein/Tyrosine-protein kinase ABL1 (Homo sapiens, UniProt P00519+P11274+P98170+Q13490); experiment: Protac activity at IAP/BCR-ABL in human K562 cells assessed as induction of BCR-ABL protein degradation measured after 6 hrs by Western blot analysis
Sequence (P00519 whole entry): as the sequence (P00519 whole entry) above
Sequence (P98170 whole entry): as the sequence (P98170 whole entry) above
Sequence (P11274 whole entry): as the sequence (P11274 whole entry) above
Sequence (Q13490 whole entry): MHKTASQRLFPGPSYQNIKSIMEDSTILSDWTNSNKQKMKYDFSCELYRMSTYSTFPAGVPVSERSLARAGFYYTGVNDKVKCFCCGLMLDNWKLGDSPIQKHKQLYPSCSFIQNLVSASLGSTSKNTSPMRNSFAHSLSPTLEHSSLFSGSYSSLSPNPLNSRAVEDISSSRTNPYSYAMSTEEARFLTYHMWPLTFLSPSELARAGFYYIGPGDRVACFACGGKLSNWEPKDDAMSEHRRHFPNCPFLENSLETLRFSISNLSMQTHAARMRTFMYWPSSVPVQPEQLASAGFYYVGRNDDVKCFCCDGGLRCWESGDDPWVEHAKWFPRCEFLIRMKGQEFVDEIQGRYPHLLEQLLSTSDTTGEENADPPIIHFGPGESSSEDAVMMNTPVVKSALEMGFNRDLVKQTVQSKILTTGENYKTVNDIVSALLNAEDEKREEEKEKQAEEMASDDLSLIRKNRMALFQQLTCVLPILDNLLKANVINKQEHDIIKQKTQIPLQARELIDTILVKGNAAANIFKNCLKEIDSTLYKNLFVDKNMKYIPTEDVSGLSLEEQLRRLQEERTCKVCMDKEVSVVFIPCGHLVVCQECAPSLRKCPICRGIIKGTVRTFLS
Quantity kind: EC50

Entry CN[C@@H](C)C(=O)N[C@H](C(=O)N1CCC[C@H]1c1nc(C(=O)c2cccc(OCCOCCOCCOCC(=O)N3CCN(c4cc(Nc5ncc(C(=O)Nc6c(C)cccc6Cl)s5)nc(C)n4)CC3)c2)cs1)C1CCCCC1 has what EC50?
< 100 nM
